Where do these numbers come from? They come from patent US6329377A.

- Target or test system: cathepsin B (Homo sapiens, UniProt P07858)
- Construct: purchased Calbiochem 219364
- Protocol notes: Inhibition of cathepsin B
- Assay type: biochemical
- Test settings: pH 6, 1 uM, Cbz-Phe-Arg-AMC 0.1 mM, read-out: Cat B % I @ 1 uM
Would you kindly list inhibition at 1 µM for each of these compounds?
Give bare numbers, in %.

- Compound: "CCNC(=O)C(=O)C(CC)NC(=O)C(CC(=O)C(c1ccccc1)c1ccccc1)CC(C)C (stereo not drawn) [Compound 8c, Ph2 CHCOCH2 CH(iBu)CO-Abu-CONHEt]"
  Target or test system: "cathepsin B (Homo sapiens, UniProt P07858)"
  Experimental value: 100
- Compound: "CC(C)CC(CC(=O)C(c1ccccc1)c1ccccc1)C(=O)N[C@H](C=O)CC(C)C (stereo partly drawn) [Compound 16c, Ph2 CHCOCH2 CH(iBu)CO-Leu-H]"
  Target or test system: "cathepsin B (Homo sapiens, UniProt P07858)"
  Experimental value: 97
- Compound: "CCC(C(=O)CC(CC(C)C)C(=O)N[C@H](C=O)CC(C)C)c1ccccc1 (stereo partly drawn) [Compound 16b, CH3 CH2 CH(Ph)COCH2 CH(iBu)CO-Leu-H]"
  Target or test system: "cathepsin B (Homo sapiens, UniProt P07858)"
  Experimental value: 99
- Compound: "CC(C)CC(CC(=O)C1c2ccccc2Oc2ccccc21)C(=O)N[C@H](C=O)CC(C)C (stereo partly drawn) [Compound 16d, Xanthene-COCH2 CH(iBu)CO-Leu-H]"
  Target or test system: "cathepsin B (Homo sapiens, UniProt P07858)"
  Experimental value: 76
- Compound: "CCNC(=O)C(=O)C(CC(C)C)NC(=O)C(CC(=O)C1c2ccccc2Oc2ccccc21)CC(C)C (stereo not drawn) [Compound 8f, Xanthene-CO(CH2 CH(iBu)CO-Leu-CONHEt]"
  Target or test system: "cathepsin B (Homo sapiens, UniProt P07858)"
  Experimental value: 98

Kindly review the next compound as well.
[ask] Give the reported inhibition at 1 µM for this compound. CCNC(=O)C(=O)C(CC)NC(=O)C(CC(=O)C1c2ccccc2Oc2ccccc21)CC(C)C (stereo not drawn) [Compound 8d, Xanthene-COCH2 CH(iBu.)CO-Abu-CONHEt]
[reply] 78

###

Would you kindly list inhibition at 10 µM for each of these compounds?
- Target or test system: α-chymotrypsin (Bos taurus)
- Construct: purchased Sigma Chem. Co. C-3142
- Protocol notes: Inhibition of α-chymotrypsin
- Assay type: biochemical
- Test settings: pH 7.5, 10 μM, 0.03 mM Succ-Ala-Ala-Pro-Phe-AMC, read-out: Chymotrypsin % I @
Give bare numbers, in %.

- Compound: "CCC(C(=O)CC(CC(C)C)C(=O)N[C@H](C=O)CC(C)C)c1ccccc1 (stereo partly drawn) [Compound 16b, CH3 CH2 CH(Ph)COCH2 CH(iBu)CO-Leu-H]"
  Target or test system: "α-chymotrypsin (Bos taurus)"
  Measured parameter: "inhibition at 10 µM"
  Experimental value: 21

Hi! Can you tell me inhibition at 10 µM for each of these compounds?
1. CCNC(=O)C(=O)C(CC)NC(=O)C(CC(=O)[C@H](CC(C)C)NC(=O)OCc1ccccc1)CC(C)C (stereo partly drawn) [Compound 8e, Z-Leu-CH2 CH(iBu)CO-Abu-CONHEt]
2. CC(C)CC(CC(=O)C1c2ccccc2Oc2ccccc21)C(=O)NC(Cc1ccccc1)C(=O)CF (racemic) [Compound 14b, Xanthene-COCH2 CH(iBu)CO-Phe-CH2 F]
3. CC(C)CC(CC(=O)CCCCc1ccccc1)C(=O)N[C@H](C=O)CC(C)C (stereo partly drawn) [Compound 16a, Ph(CH2)4 COCH2 CH(iBu)CO-Leu-H]

[reply]
1. 0
2. 98
3. 61

Hi! Can you tell me inhibition at 10 µM for each of these compounds?
1. CC(C)CC(CC(=O)C(c1ccccc1)c1ccccc1)C(=O)N[C@H](C=O)CC(C)C (stereo partly drawn) [Compound 16c, Ph2 CHCOCH2 CH(iBu)CO-Leu-H]
2. CCC(C(=O)CC(CC(C)C)C(=O)NC(Cc1ccccc1)C(=O)CF)c1ccccc1 (stereo not drawn) [Compound 14a, CH3 CH2 CH(Ph)COCH2 CH(iBu)CO-Phe-CH2 F]
3. CCNC(=O)C(=O)C(CC)NC(=O)C(CC(=O)C1c2ccccc2Oc2ccccc21)CC(C)C (stereo not drawn) [Compound 8d, Xanthene-COCH2 CH(iBu.)CO-Abu-CONHEt]

[reply]
[62, 33, 7]

Hi! Can you tell me inhibition at 10 µM for each of these compounds?
1. CCNC(=O)C(=O)C(CC)NC(=O)C(CC(=O)CCCCc1ccccc1)CC(C)C (stereo not drawn) [Compound 8a, Ph(CH2)4 COCH2 CH(iBu)CO-Abu-CONHEt]
2. CC(C)CC(CC(=O)N1CCN(c2ccccc2)CC1)C(=O)N[C@H](C=O)CC(C)C (single isomer, unassigned) [Compound 16g-I, Ph-Piperazine-COCH2 CH(iBu)CO-Leu-H]

[reply]
1: 0; 2: 0
